# TESTED_SYSTEM: GST-Bcl-2 (Homo sapiens)
# Sequence (P10415 whole entry): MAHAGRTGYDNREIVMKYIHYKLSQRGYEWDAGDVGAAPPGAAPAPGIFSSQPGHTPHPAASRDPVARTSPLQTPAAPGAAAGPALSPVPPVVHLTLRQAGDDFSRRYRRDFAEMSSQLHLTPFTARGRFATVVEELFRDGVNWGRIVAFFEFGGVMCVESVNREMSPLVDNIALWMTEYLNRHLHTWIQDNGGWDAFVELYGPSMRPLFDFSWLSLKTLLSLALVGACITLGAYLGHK
# ASSAY_INFO: TR-FRET binding assay, GST-Bcl-2 with F-Bak peptide probe
# RUN_PARAMETERS: TR-FRET Binding Affinity
Ki strictly less than 0.03 nM = YES. Otherwise NO.

INSERT INTO results (compound, tested_system, cat) VALUES
  ('CC1(C)CCC(CN2CCN(c3ccc(C(=O)NS(=O)(=O)c4ccc(OCC5(F)CCN(C6COC6)CC5)c(C#N)c4)c(Oc4cccc5[nH]ncc45)c3)CC2)=C(c2ccc(Cl)cc2)C1 [Example 534]', 'GST-Bcl-2 (Homo sapiens)', 'YES'),
  ('CC1(C)CCC(CN2CCN(c3ccc(C(=O)NS(=O)(=O)c4ccc(OCC5CCC6(CC5)COC6)c([N+](=O)[O-])c4)c(Oc4cccc5[nH]ncc45)c3)CC2)=C(c2ccc(Cl)cc2)C1 [Example 535]', 'GST-Bcl-2 (Homo sapiens)', 'YES'),
  ('CCN(C)C(=O)N1CCOC(CNc2ccc(S(=O)(=O)NC(=O)c3ccc(N4CCN(CC5=C(c6ccc(Cl)cc6)CC(C)(C)CC5)CC4)cc3Oc3cccc4[nH]cnc34)cc2[N+](=O)[O-])C1 (stereo not shown) [Example 507]', 'GST-Bcl-2 (Homo sapiens)', 'YES'),
  ('CC1(C)CC(c2ccc(Cl)cc2)=C(CN2CCN(c3ccc(C(=O)NS(=O)(=O)c4cnc(OCC5(F)CCOCC5)c(Cl)c4)c(Oc4cccc5[nH]ncc45)c3)CC2)CO1 [Example 465]', 'GST-Bcl-2 (Homo sapiens)', 'YES'),
  ('CC1(C)CCC(CN2CCN(c3ccc(C(=O)NS(=O)(=O)c4cnc(OC[C@@H]5CN(C6CC6)CCO5)c(Cl)c4)c(Oc4cccc5[nH]cnc45)c3)CC2)=C(c2ccc(Cl)cc2)C1 [Example 503]', 'GST-Bcl-2 (Homo sapiens)', 'NO'),
  ('CC1(C)CCC(CN2CCN(c3ccc(C(=O)NS(=O)(=O)c4cnc(OCC5(F)CCN(C(CF)CF)CC5)c(C(F)(F)F)c4)c(Oc4cccc5[nH]ncc45)c3)CC2)=C(c2ccc(Cl)cc2)C1 [Example 459]', 'GST-Bcl-2 (Homo sapiens)', 'YES'),
  ('CC1(C)CCC(CN2CCN(c3ccc(C(=O)NS(=O)(=O)c4cnc(OCC5CCOCC5)c(Cl)c4)c(Oc4cccc5[nH]cnc45)c3)CC2)=C(c2ccc(Cl)cc2)C1 [Example 500]', 'GST-Bcl-2 (Homo sapiens)', 'YES'),
  ('CC1(C)CCC(CN2CCN(c3ccc(C(=O)NS(=O)(=O)c4cnc(OCCC5CCCO5)c(Cl)c4)c(Oc4cccc5[nH]ncc45)c3)CC2)=C(c2ccc(Cl)cc2)C1 (stereo not shown) [Example 461]', 'GST-Bcl-2 (Homo sapiens)', 'NO'),
  ('CC1(C)CCC(CN2CCN(c3ccc(C(=O)NS(=O)(=O)c4ccc(OCC5(F)CCN(C6COC6)CC5)c(Cl)c4)c(Oc4cccc5[nH]ncc45)c3)CC2)=C(c2ccc(Cl)cc2)C1 [Example 517]', 'GST-Bcl-2 (Homo sapiens)', 'YES'),
  ('CC1(C)CCC(CN2CCN(c3ccc(C(=O)NS(=O)(=O)c4ccc(NC[C@H]5CN(C6CC6)CCO5)c([N+](=O)[O-])c4)c(Oc4cccc5[nH]ncc45)c3)CC2)=C(c2ccc(Cl)cc2)C1 [Example 529]', 'GST-Bcl-2 (Homo sapiens)', 'YES'),
  ('CC1(C)CCC(CN2CCN(c3ccc(C(=O)NS(=O)(=O)c4ccc(NC5CCN(C6CC6)CC5)c([N+](=O)[O-])c4)c(Oc4cccc5[nH]ncc45)c3)CC2)=C(c2ccc(Cl)cc2)C1 [Example 436]', 'GST-Bcl-2 (Homo sapiens)', 'YES'),
  ('CC1(C)CCC(CN2CCN(c3ccc(C(=O)NS(=O)(=O)c4ccc(OCC5CCC(C)(O)CC5)c([N+](=O)[O-])c4)c(Oc4cccc5[nH]ncc45)c3)CC2)=C(c2ccc(Cl)cc2)C1 (stereo not shown) [Example 532]', 'GST-Bcl-2 (Homo sapiens)', 'YES'),
  ('CC1(C)CCC(CN2CCN(c3ccc(C(=O)NS(=O)(=O)c4ccc(NC5CCN(C6CC6)CC5)c([N+](=O)[O-])c4)c(Oc4cccc5[nH]cnc45)c3)CC2)=C(c2ccc(Cl)cc2)C1 [Example 451]', 'GST-Bcl-2 (Homo sapiens)', 'YES'),
  ('CC1(C)CCC(CN2CCN(c3ccc(C(=O)NS(=O)(=O)c4cnc(OCC5(F)CCN(C6COC6)CC5)c(Cl)c4)c(Oc4cccc5[nH]ncc45)c3)CC2)=C(c2ccc(Cl)cc2)C1 [Example 528]', 'GST-Bcl-2 (Homo sapiens)', 'YES'),
  ('Cn1cncc1COc1ncc(S(=O)(=O)NC(=O)c2ccc(N3CCN(CC4=C(c5ccc(Cl)cc5)CC(C)(C)CC4)CC3)cc2Oc2cccc3[nH]ncc23)cc1Cl [Example 486]', 'GST-Bcl-2 (Homo sapiens)', 'NO'),
  ('CC1(C)CCC(CN2CCN(c3ccc(C(=O)NS(=O)(=O)c4cnc(OC[C@@H]5CCN(CC(F)F)C5)c(Cl)c4)c(Oc4cccc5[nH]ncc45)c3)CC2)=C(c2ccc(Cl)cc2)C1 [Example 445]', 'GST-Bcl-2 (Homo sapiens)', 'YES'),
  ('CC(=O)N1CCOC(CNc2ccc(S(=O)(=O)NC(=O)c3ccc(N4CCN(CC5=C(c6ccc(Cl)cc6)CC(C)(C)CC5)CC4)cc3Oc3cccc4[nH]cnc34)cc2[N+](=O)[O-])C1 (stereo not shown) [Example 457]', 'GST-Bcl-2 (Homo sapiens)', 'NO'),
  ('CN1CCC(CNc2ccc(S(=O)(=O)NC(=O)c3ccc(N4CCN(CC5=C(c6ccc(Cl)cc6)CC(C)(C)CC5)CC4)cc3Oc3cccc4[nH]cnc34)cc2[N+](=O)[O-])CC1 [Example 454]', 'GST-Bcl-2 (Homo sapiens)', 'YES'),
  ('COC(=O)N1CCOC(CNc2ccc(S(=O)(=O)NC(=O)c3ccc(N4CCN(CC5=C(c6ccc(Cl)cc6)CC(C)(C)CC5)CC4)cc3Oc3cccc4[nH]ncc34)cc2[N+](=O)[O-])C1 (stereo not shown) [Example 505]', 'GST-Bcl-2 (Homo sapiens)', 'YES');

Values were extracted from patent US9073855B2.
